IC50 tested on FXa (Homo sapiens, UniProt P00742): recorded values
Sequence (P00742 235-488 limits assumed): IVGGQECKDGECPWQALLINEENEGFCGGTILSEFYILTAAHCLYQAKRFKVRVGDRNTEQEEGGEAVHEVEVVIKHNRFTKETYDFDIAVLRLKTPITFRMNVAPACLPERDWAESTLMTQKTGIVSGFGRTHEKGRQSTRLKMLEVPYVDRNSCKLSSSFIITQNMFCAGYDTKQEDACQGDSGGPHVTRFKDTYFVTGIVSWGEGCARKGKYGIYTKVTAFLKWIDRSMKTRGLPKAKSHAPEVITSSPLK
Sequence (P00742 41-179 partner limits assumed): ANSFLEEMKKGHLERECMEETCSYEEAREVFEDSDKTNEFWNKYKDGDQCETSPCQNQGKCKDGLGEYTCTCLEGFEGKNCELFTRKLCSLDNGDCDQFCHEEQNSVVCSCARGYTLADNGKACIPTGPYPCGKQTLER
value-type: IC50 (nM)

>  <compound>
CN1CCC(N2CCN(C(=O)[C@H](NC(=O)Nc3ccc(Cl)cc3)c3ccccc3)CC2)CC1 [Compound 5, bistrifluoroacetate]

>  <obs-value>
17

$$$$
>  <compound>
CN1CCC(C2CCN(C(=O)[C@H](NC(=O)Nc3ccc(Cl)cc3)c3ccccc3)CC2)CC1 [Compound 1]

>  <obs-value>
6

$$$$

* * *

target: TF/FVIIa (Homo sapiens, UniProt P08709)
Sequence (P08709 213-466 limits assumed): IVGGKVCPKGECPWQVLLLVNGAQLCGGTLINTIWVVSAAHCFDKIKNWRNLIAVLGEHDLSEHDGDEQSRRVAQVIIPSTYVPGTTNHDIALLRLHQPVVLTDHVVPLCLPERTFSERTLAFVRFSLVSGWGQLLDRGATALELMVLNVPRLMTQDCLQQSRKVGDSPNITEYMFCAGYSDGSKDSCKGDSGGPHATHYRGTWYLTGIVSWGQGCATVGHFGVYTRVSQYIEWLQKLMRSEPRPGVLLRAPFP
Sequence (P08709 61-212 partner limits assumed): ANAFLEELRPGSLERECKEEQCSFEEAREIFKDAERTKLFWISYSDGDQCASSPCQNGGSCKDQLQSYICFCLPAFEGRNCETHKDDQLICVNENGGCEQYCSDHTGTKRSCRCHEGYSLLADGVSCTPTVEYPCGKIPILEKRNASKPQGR
Sequence (P13726 33-295 partner): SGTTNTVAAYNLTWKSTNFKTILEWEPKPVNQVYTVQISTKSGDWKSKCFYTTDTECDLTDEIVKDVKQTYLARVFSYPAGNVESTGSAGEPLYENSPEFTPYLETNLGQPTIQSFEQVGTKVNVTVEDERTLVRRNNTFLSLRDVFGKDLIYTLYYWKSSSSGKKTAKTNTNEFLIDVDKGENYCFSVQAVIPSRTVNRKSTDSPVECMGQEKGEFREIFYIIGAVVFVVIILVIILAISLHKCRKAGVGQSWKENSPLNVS
procedure-text: TF/factor VIIa inhibition (TF/FVIIa-IC50)
pIC50: −log10 of the molar value.
value-type: pIC50

>  <molecule>
O=C(Nc1ccc(Cl)cc1)N[C@@H](C(=O)N1CCN(c2ccc(F)cc2)CC1)c1ccccc1 [Compound 2]

>  <obs-value>
5.77

$$$$
>  <molecule>
CN1CCC(C2CCN(C(=O)[C@H](NC(=O)Nc3ccc(Cl)cc3)c3ccccc3)CC2)CC1 [Compound 1]

>  <obs-value>
8.16

$$$$
>  <molecule>
CN1CCC(C2CCN(C(=O)[C@H](OC(=O)Nc3ccc(Cl)cc3)c3ccccc3)CC2)CC1 [Compound 49]

>  <obs-value>
7.82

$$$$
>  <molecule>
CN1CCC(N2CCN(C(=O)[C@H](NC(=O)Nc3ccc(Cl)cc3)c3ccccc3)CC2)CC1 [Compound 5, bistrifluoroacetate]

>  <obs-value>
8.20

$$$$

All figures here come from patent US7951804B2.
